Molecular target: Integrin alpha-4/beta-1 (Homo sapiens, UniProt P05556+P13612)
Sequence (P05556 whole entry): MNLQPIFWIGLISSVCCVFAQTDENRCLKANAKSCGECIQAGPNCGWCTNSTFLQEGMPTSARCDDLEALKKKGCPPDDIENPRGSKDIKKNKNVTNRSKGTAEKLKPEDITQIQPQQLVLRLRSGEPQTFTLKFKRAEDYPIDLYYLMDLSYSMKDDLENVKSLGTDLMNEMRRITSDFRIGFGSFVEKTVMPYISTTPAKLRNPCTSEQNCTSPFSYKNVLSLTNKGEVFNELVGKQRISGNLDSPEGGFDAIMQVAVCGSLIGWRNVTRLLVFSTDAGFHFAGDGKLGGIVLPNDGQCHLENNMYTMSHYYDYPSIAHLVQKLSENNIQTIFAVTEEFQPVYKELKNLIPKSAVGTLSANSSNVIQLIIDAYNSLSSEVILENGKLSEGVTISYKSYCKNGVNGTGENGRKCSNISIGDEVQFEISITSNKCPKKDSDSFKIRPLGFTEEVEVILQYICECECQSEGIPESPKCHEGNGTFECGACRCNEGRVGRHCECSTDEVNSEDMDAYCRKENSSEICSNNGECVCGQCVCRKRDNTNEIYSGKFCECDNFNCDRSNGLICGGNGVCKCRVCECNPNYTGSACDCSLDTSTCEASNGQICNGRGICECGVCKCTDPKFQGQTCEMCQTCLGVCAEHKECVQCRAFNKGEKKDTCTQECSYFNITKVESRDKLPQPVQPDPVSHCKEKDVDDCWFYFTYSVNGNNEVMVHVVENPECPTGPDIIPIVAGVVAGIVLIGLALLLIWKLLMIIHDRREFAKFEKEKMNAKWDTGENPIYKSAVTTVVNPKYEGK
Sequence (P13612 whole entry): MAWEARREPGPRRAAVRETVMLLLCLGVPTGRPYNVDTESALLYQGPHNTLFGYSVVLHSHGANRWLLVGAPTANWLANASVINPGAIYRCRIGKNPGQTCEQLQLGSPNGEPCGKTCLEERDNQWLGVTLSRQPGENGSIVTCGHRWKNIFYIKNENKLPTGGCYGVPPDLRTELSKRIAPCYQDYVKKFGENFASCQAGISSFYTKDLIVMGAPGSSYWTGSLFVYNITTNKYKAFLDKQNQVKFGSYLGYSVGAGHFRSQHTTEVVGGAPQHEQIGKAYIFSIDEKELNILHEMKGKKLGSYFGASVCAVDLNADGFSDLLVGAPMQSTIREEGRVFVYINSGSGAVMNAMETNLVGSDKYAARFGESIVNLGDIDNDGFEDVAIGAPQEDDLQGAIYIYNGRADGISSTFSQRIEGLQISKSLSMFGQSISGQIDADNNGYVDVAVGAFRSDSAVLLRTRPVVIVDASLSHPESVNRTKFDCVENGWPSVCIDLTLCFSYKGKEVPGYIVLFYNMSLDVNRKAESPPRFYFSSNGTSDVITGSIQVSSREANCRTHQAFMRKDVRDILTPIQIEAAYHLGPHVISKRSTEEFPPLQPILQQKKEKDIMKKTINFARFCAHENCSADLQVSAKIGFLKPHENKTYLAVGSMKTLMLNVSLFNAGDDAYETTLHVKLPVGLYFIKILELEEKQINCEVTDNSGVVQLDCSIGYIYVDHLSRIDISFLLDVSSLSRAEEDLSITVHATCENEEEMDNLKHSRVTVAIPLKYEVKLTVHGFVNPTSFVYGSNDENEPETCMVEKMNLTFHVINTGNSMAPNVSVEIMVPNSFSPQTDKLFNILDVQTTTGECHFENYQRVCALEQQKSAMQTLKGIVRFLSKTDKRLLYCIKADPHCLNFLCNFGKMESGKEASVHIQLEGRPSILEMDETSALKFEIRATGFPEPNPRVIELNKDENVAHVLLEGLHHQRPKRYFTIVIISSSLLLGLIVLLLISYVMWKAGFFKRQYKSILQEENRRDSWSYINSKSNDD
Assay: Inhibition of purified alpha-4 beta-1 binding to VCAM-1 was determined in an ELISA assay.
Assay type: protein-complex assay
*1 amine or outer side, *2 acyl side, *3 side chain or, on linkers, in order; H or OH if unused. Where a SMILES comes first, the peptide text is derived from it. Bridges are numbered along the chain shown (N, C = ends). [ ]: non-standard residue; d: D form. The star is where a group is joined. ξ: configuration not given here. X5 = O=C([C@H](Cc1c(F)c(F)c(O)c(F)c1F)N[*:1])[*:2]; Tyr(3-Cl) = N[C@@H](Cc1ccc(O)c(Cl)c1)C(=O)O; Oic(3aξ,7aξ) = O=C(O)[C@@H]1CC2CCCCC2N1; 1Naphthoyl = O=C(c1cccc2ccccc12)*; Cha = N[C@@H](CC1CCCCC1)C(=O)O; Aic = NC1(C(=O)O)Cc2ccccc2C1; Chg = N[C@H](C(=O)O)C1CCCCC1; 3Amb = NCc1cccc(C(=O)O)c1
Mark each entry YES if its IC50 sits below 0.4 µM, and NO for all others.

Some solved cases for reference:
# compound, labelClass
data = [
    ("C[C@@H]1NC(=O)[C@@H](NC(=O)[C@@H](N)Cc2ccc(O)cc2)CSSC[C@@H](C(=O)O)NC(=O)[C@@H]2CC3CCCCC3N2C1=O (stereo not given in full) (H-YCA[Oic(3aξ,7aξ)]C-OH; disulfide 2-5)", "YES"),
    ("N[C@@H](Cc1c(F)c(F)c(O)c(F)c1F)C(=O)N[C@H]1CSSC[C@@H](C(=O)O)NC(=O)[C@@H]2CCCN2C(=O)[C@H](CO)NC1=O (H-[X5]CSPC-OH; disulfide 2-5)", "NO"),
]

In the record for N[C@@H](Cc1ccc(O)c(Cl)c1)C(=O)N[C@H]1CSSC[C@@H](C(=O)O)NC(=O)[C@@H]2CCCN2C(=O)[C@H](CO)NC1=O (H-[Tyr(3-Cl)]CSPC-OH; disulfide 2-5) , is IC50 less than 0.4 µM?
YES

Moving on to O=C(N[C@H]1CSSC[C@@H](C(=O)O)NC(=O)[C@@H]2CCCN2C(=O)[C@H](CO)NC1=O)c1cccc2ccccc12 (1Naphthoyl-CSPC-OH; disulfide 1-4)
YES

Entry to check: C[C@@H]1NC(=O)[C@@H](NC(=O)[C@@H](N)Cc2ccc(O)cc2)CSSC[C@@H](C(=O)O)NC(=O)[C@H](C2CCCCC2)NC1=O (H-YCA[Chg]C-OH; disulfide 2-5)
YES

Now give it for C[C@@H]1NC(=O)[C@@H](NC(=O)[C@@H](N)Cc2ccc(O)cc2)CSSC[C@@H](C(=O)O)NC(=O)C2(Cc3ccccc3C2)NC1=O (H-YCA[Aic]C-OH; disulfide 2-5) too.
NO

# iterate: N[C@@H](Cc1ccc(O)cc1)C(=O)N[C@H]1CSSC[C@@H](C(=O)O)NC(=O)c2cccc(c2)CNC1=O (H-YC[3Amb]C-OH; disulfide 2-4)
NO

Subsequent entry: C[C@@H]1NC(=O)[C@@H](NC(=O)[C@@H](N)Cc2ccc(O)cc2)CSSC[C@@H](C(=O)O)NC(=O)[C@H](CC2CCCCC2)NC1=O (H-YCA[Cha]C-OH; disulfide 2-5)
YES

###

Target: Integrin alpha-4/beta-1 (Homo sapiens, UniProt P05556+P13612)
Test: Inhibition of fluorescently labeled alpha4-beta1 positive Ramos cells binding to immobilized VCAM-1.
Format: cell-based
Where a SMILES comes first, the peptide text is derived from it. Bridges are numbered along the chain shown (N, C = ends). [ ]: non-standard residue; d: D form. The star is where a group is joined. ξ: configuration not given here. Oic(3aξ,7aξ) = O=C(O)[C@@H]1CC2CCCCC2N1; Fmoc = O=C(OCC1c2ccccc2-c2ccccc21)*
endpoint: pIC50
Numbers only, as −log10 of the molar value.

# molecule, pIC50
measured = [
    ("C[C@@H]1NC(=O)[C@@H]2CCCN2C(=O)[C@@H](NC(=O)[C@@H](N)Cc2ccc(O)cc2)CSSC[C@@H](C(=O)O)NC1=O (H-YCPAC-OH; disulfide 2-5)", 4.85),
    ("C[C@H](NC(=O)[C@@H](N)Cc1ccc(O)cc1)C(=O)N[C@H]1CSSC[C@@H](C(=O)O)NC(=O)[C@@H]2CCCN2C(=O)[C@H](CC(=O)O)NC1=O (H-YACDPC-OH; disulfide 3-6)", 5.30),
    ("NCCCC[C@H](N)C(=O)N[C@H]1CSSC[C@@H](C(=O)O)NC(=O)[C@@H]2CCCN2C(=O)[C@H](CC(=O)O)NC1=O (H-KCDPC-OH; disulfide 2-5)", 3.00),
    ("CC(=O)N[C@@H](CCCN=C(N)N)C(=O)N[C@H]1CSSC[C@@H](C(=O)O)NC(=O)[C@@H]2CCCN2C(=O)[C@H](CC(=O)O)NC1=O (Ac-RCDPC-OH; disulfide 2-5)", 4.40),
    ("C[C@@H]1NC(=O)[C@@H](NC(=O)[C@@H](N)Cc2ccc(O)cc2)CSSC[C@@H](C(=O)O)NC(=O)[C@@H]2CC3CCCCC3N2C1=O (stereo partly drawn) (H-YCA[Oic(3aξ,7aξ)]C-OH; disulfide 2-5)", 5.33),
]

State recorded pIC50 for all listed molecules.
1. N=C(N)NCCC[C@H](NC(=O)OCC1c2ccccc2-c2ccccc21)C(=O)N[C@H]1CSSC[C@@H](C(=O)O)NC(=O)[C@@H]2CCCN2C(=O)[C@H](CC(=O)O)NC1=O (Fmoc-RCDPC-OH; disulfide 2-5)
2. CC(C)C[C@H](N)C(=O)N[C@@H](CCCNC(=N)N)C(=O)N[C@H]1CSSC[C@@H](C(=O)O)NC(=O)[C@@H]2CCCN2C(=O)[C@H](CC(=O)O)NC1=O (H-LRCDPC-OH; disulfide 3-6)

1. 4.82
2. 3.60

Given CC(=O)N[C@@H](Cc1ccc(O)cc1)C(=O)N[C@H]1CSSC[C@@H](C(=O)O)NC(=O)[C@@H]2CCCN2C(=O)[C@H](CO)NC1=O (Ac-YCSPC-OH; disulfide 2-5) , state its recorded pIC50.
6.92

###

Target: Integrin alpha-4/beta-1 (Homo sapiens, UniProt P05556+P13612)
Assay: Inhibition of purified alpha-4 beta-1 binding to VCAM-1 was determined in an ELISA assay.
Format: protein-complex assay
*1 amine or outer side, *2 acyl side, *3 side chain or, on linkers, in order; H or OH if unused. Where a SMILES comes first, the peptide text is derived from it. Bridges are numbered along the chain shown (N, C = ends). [ ]: non-standard residue; d: D form. The star is where a group is joined. X7 = O=C([C@H]1[C@@H](c2ccc(O)cc2)CCN1[*:1])[*:2]; Fmoc = O=C(OCC1c2ccccc2-c2ccccc21)*; Phg = N[C@H](C(=O)O)c1ccccc1; Pip = O=C(O)[C@@H]1CCCCN1; 3Abz = Nc1cccc(C(=O)O)c1; GABA = NCCCC(=O)O
endpoint: IC50
The number alone won't do; follow it with the unit.

# compound, testedTarget, IC50
measured = [
    ("N=C(N)NCCC[C@H](NC(=O)OCC1c2ccccc2-c2ccccc21)C(=O)N[C@H]1CSSC[C@@H](C(=O)O)NC(=O)[C@@H]2CCCN2C(=O)[C@H](CC(=O)O)NC1=O (Fmoc-RCDPC-OH; disulfide 2-5)", "Integrin alpha-4/beta-1 (Homo sapiens, UniProt P05556+P13612)", "0.13 µM"),
    ("C[C@@H]1NC(=O)[C@@H](NC(=O)[C@@H](N)Cc2ccc(O)cc2)CSSC[C@@H](C(=O)O)NC1=O (H-YCAC-OH; disulfide 2-4)", "Integrin alpha-4/beta-1 (Homo sapiens, UniProt P05556+P13612)", "9.4 µM"),
    ("CC(C)C[C@H](N)C(=O)N[C@@H](CCCNC(=N)N)C(=O)N[C@H]1CSSC[C@@H](C(=O)O)NC(=O)[C@@H]2CCCN2C(=O)[C@H](CC(=O)O)NC1=O (H-LRCDPC-OH; disulfide 3-6)", "Integrin alpha-4/beta-1 (Homo sapiens, UniProt P05556+P13612)", "21 µM"),
    ("CC(=O)N[C@@H](Cc1ccc(O)cc1)C(=O)N[C@H]1CSSC[C@@H](C(=O)O)NC(=O)[C@@H]2CCCCN2C(=O)[C@H](C)NC1=O (Ac-YCA[Pip]C-OH; disulfide 2-5)", "Integrin alpha-4/beta-1 (Homo sapiens, UniProt P05556+P13612)", "0.001 µM"),
    ("C[C@@H]1NC(=O)[C@@H](NC(=O)[C@H](CCCN=C(N)N)NC(=O)[C@@H](N)Cc2ccc(O)cc2)CSSC[C@@H](C(=O)O)NC(=O)[C@@H]2CCCN2C1=O (H-YRCAPC-OH; disulfide 3-6)", "Integrin alpha-4/beta-1 (Homo sapiens, UniProt P05556+P13612)", "0.06 µM"),
]

Need IC50 for each of these compounds.
1. CC(=O)N[C@@H](Cc1ccc(O)cc1)C(=O)N[C@H]1CSSC[C@@H](C(=O)O)NC(=O)[C@@H]2CCCN2C(=O)[C@H]([C@@H](C)O)NC1=O (Ac-YCTPC-OH; disulfide 2-5)
2. NC(=O)[C@@H]1CSSC[C@H](NC(=O)[C@@H](N)Cc2ccc(O)cc2)C(=O)Nc2cccc(c2)C(=O)N1 (H-YC[3Abz]C-NH2; disulfide 2-4)
3. CC(=O)N[C@@H](Cc1ccc(O)cc1)C(=O)N[C@H]1CSSC[C@@H](C(=O)O)NC(=O)[C@H](c2ccccc2)NC(=O)[C@H](C)NC1=O (Ac-YCA[Phg]C-OH; disulfide 2-5)
4. N[C@@H](Cc1ccc(O)cc1)C(=O)N[C@H]1CSSC[C@@H](C(=O)O)NC(=O)C2CCC(CC2)CNC1=O
5. N[C@@H](Cc1ccc(O)cc1)C(=O)N[C@H]1CSSC[C@@H](C(=O)O)NC(=O)CCCNC1=O (H-YC[GABA]C-OH; disulfide 2-4)
6. CC(=O)N1CC[C@H](c2ccc(O)cc2)[C@@H]1C(=O)N[C@H]1CSSC[C@@H](C(=O)O)NC(=O)[C@@H]2CCCN2C(=O)[C@H](CO)NC1=O (Ac-[X7]CSPC-OH; disulfide 2-5)

0.005 µM
12 µM
0.076 µM
0.1 µM
0.038 µM
0.004 µM

Provide each entry's IC50 from the list below.
1. C[C@@H]1NC(=O)[C@@H](NC(=O)[C@@H](N)Cc2ccc(O)cc2)CSSC[C@@H](C(=O)O)NC(=O)[C@H](Cc2ccccc2)NC1=O (H-YCAFC-OH; disulfide 2-5)
2. C[C@H](NC(=O)[C@@H](N)Cc1ccc(O)cc1)C(=O)N[C@H]1CSSC[C@@H](C(=O)O)NC(=O)[C@@H]2CCCN2C(=O)[C@H](CC(=O)O)NC1=O (H-YACDPC-OH; disulfide 3-6)
3. CC(=O)N[C@@H](Cc1ccc(O)cc1)C(=O)N[C@H]1CSSC[C@@H](C(=O)O)NC(=O)[C@@H]2CCCN2C(=O)[C@H](C)NC1=O (Ac-YCAPC-OH; disulfide 2-5)
4. N[C@@H](Cc1ccc(O)cc1)C(=O)N[C@H]1CSSC[C@@H](C(=O)O)NC(=O)CNC1=O (H-YCGC-OH; disulfide 2-4)

2.8 µM
0.21 µM
0.004 µM
5.8 µM

Reference for the values: ChEMBL document CHEMBL1130186
